target: Mitogen-activated protein kinase kinase kinase 20 (Homo sapiens, UniProt Q9NYL2); test: Binding affinity to wild-type human partial length ZAK (M1 to L331 residues) expressed in bacterial expression system assessed as residual binding level at 100 nM by Kinomescan method relative to control
Sequence (Q9NYL2 2-800 limits assumed): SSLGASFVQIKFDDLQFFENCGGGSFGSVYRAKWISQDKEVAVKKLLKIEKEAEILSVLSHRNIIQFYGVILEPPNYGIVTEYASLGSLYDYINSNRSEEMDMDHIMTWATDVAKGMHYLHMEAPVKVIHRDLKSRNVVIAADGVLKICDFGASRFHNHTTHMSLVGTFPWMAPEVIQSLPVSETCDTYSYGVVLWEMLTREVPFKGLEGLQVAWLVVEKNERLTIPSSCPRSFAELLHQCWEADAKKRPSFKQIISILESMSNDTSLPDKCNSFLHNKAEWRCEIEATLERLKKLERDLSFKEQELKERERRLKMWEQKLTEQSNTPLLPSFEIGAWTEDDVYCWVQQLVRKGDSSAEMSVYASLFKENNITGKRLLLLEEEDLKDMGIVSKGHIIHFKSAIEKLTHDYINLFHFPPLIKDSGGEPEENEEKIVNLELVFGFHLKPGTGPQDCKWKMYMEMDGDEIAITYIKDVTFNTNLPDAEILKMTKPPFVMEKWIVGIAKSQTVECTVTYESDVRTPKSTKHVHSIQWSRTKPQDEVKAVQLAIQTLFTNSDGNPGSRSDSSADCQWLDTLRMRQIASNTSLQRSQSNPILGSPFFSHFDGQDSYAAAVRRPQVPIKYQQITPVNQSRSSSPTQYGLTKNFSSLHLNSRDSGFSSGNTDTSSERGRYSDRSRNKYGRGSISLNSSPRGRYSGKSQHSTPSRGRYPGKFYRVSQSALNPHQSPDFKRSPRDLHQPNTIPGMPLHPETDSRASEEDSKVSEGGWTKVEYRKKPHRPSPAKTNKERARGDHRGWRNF
Endpoint name: Activity (%)

input: Please give the measured Activity for this molecule: `CCCS(=O)(=O)Nc1ccc(F)c(C(=O)c2n[nH]c3ncc(-c4ccccc4)cc23)c1F`
output: 1.9

1. CCCS(=O)(=O)Nc1ccc(F)c(C(=O)c2n[nH]c3ncc(-c4ccc(S(N)(=O)=O)cc4Cl)cc23)c1F
2. CCCS(=O)(=O)Nc1ccc(F)c(C(=O)c2n[nH]c3ncc(-c4ccc(C(=O)O)cc4)cc23)c1F
3. CCCS(=O)(=O)Nc1ccc(F)c(C(=O)c2n[nH]c3ncc(-c4ccc(S(C)(=O)=O)cc4)cc23)c1F
input: Parameters: sort_field (Activity), sort_dir (desc). Your reply should list the labels following the order given in the request.
output: 1, 3, 2
(1: 100%, 3: 21%, 2: 7.5%)
